Data origin: ChEMBL document CHEMBL5325512

Tested on: Human immunodeficiency virus 1
ASSAY: Antiviral activity against HIV 1 harbouring deltaV370 mutant
Type: functional, organism-based
Quick reference: EC50 of the listed items.

{"columns": ["COMPOUND", "EC50 (nM)"],
 "data": [
  ["C=C(C)[C@@H]1CC[C@]2(NCCN3CCS(=O)(=O)CC3)CC[C@]3(C)[C@H](CC[C@@H]4[C@@]5(C)CC=C(C6=CCC(C(=O)O)CC6)C(C)(C)[C@@H]5CC[C@]43C)[C@@H]12 (some centres undefined)", 2],
  ["C=C(C)[C@@H]1CC[C@]2(NCCN3CCS(=O)(=O)CC3)CC[C@]3(C)[C@H](CC[C@@H]4[C@@]5(C)CC=C(C6=CC[C@@](CF)(C(=O)O)CC6)C(C)(C)[C@@H]5CC[C@]43C)[C@@H]12 [FIPRAVIRIMAT]", 3],
  ["C=C(C)[C@@H]1CC[C@]2(NCCN3CCS(=O)(=O)CC3)CC[C@]3(C)[C@H](CC[C@@H]4[C@@]5(C)CC=C(C6=CC[C@@H](C(=O)O)CC6)C(C)(C)[C@@H]5CC[C@]43C)[C@@H]12", 3],
  ["C=C(C)[C@@H]1CC[C@]2(NCCN3CCS(=O)(=O)CC3)CC[C@]3(C)[C@H](CC[C@@H]4[C@@]5(C)CC=C(c6ccc(C(=O)O)cc6)C(C)(C)[C@@H]5CC[C@]43C)[C@@H]12 [BMS-955176]", 6]
]}

###

Examples of molecules with documented EC50 follow.
System: Human immunodeficiency virus 1
ASSAY: Antiviral activity against wild type HIV 1 in presence of human serum albumin
Type: functional, organism-based

{"columns": ["MOLECULE", "UNIT_INFO", "EC50"],
 "data": [
  ["C=C(C)[C@@H]1CC[C@]2(NCCN3CCS(=O)(=O)CC3)CC[C@]3(C)[C@H](CC[C@@H]4[C@@]5(C)CC=C(C6=CC[C@@H](C(=O)O)CC6)C(C)(C)[C@@H]5CC[C@]43C)[C@@H]12", "nM", 5],
  ["C=C(C)[C@@H]1CC[C@]2(NCCN3CCS(=O)(=O)CC3)CC[C@]3(C)[C@H](CC[C@@H]4[C@@]5(C)CC=C(C6=CCC(C(=O)O)CC6)C(C)(C)[C@@H]5CC[C@]43C)[C@@H]12 (some centres not stated)", "nM", 9]
]}

###

Recorded EC50 by entry
Test system: Human immunodeficiency virus 1
ASSAY: Antiviral activity against HIV 1 harbouring V370A mutant
Type: functional, organism-based

{"columns": ["COMPOUND", "UNIT_INFO", "EC50"],
 "data": [
  ["C=C(C)[C@@H]1CC[C@]2(NCCN3CCS(=O)(=O)CC3)CC[C@]3(C)[C@H](CC[C@@H]4[C@@]5(C)CC=C(C6=CC[C@@](CF)(C(=O)O)CC6)C(C)(C)[C@@H]5CC[C@]43C)[C@@H]12 [FIPRAVIRIMAT]", "nM", 2],
  ["C=C(C)[C@@H]1CC[C@]2(NCCN3CCS(=O)(=O)CC3)CC[C@]3(C)[C@H](CC[C@@H]4[C@@]5(C)CC=C(C6=CCC(C(=O)O)CC6)C(C)(C)[C@@H]5CC[C@]43C)[C@@H]12 (stereo partly drawn)", "nM", 0.7],
  ["C=C(C)[C@@H]1CC[C@]2(NCCN3CCS(=O)(=O)CC3)CC[C@]3(C)[C@H](CC[C@@H]4[C@@]5(C)CC=C(c6ccc(C(=O)O)cc6)C(C)(C)[C@@H]5CC[C@]43C)[C@@H]12 [BMS-955176]", "nM", 6]
]}
